system: SF-268 CNS; test: NCI tumour cell line growth inhibition, 48 h
Entries and their measured TGI follow.

Below are worked cases with known answers.
[
  {
    "compound": "CCOc1ccc(Nc2nc(N)nc(N)c2N=O)cc1",
    "TGI": "> 100 µM"
  },
  {
    "compound": "O=C(NCCNC1=CC(=O)c2nc3ccccc3c3ccnc1c23)c1cnccn1",
    "TGI": "> 100 µM"
  },
  {
    "compound": "Cc1cc(N(CCC#N)CCC#N)ccc1/C=C1N=C(/C=C\\c2ccccc2)N(c2ccc(C(=O)O)cc2)C\\1=O",
    "TGI": "> 100 µM"
  }
]

Report TGI, nothing else, for this compound: O=[N+]([O-])C(/C=C(\Cl)[N+](=O)[O-])=C(Nc1ccccc1)Nc1ccccc1
37.7 µM

State, in one line, measured TGI of CC1(C)O[C@@H](CCl)C[C@@H](C#N)O1
> 100 µM

Item COc1cc2ccc(C(C)NCC#N)cc2cc1OC (stereo unspecified) : provide TGI
> 100 µM

* * *

test system: UO-31 renal; experiment: NCI tumour cell line growth inhibition, 48 h
Recorded TGI for the following molecules

[
  {
    "molecule": "CC[P+](c1ccccc1)(N(C)C)N(C)C",
    "TGI": "> 100 µM"
  },
  {
    "molecule": "Nc1ncnc2c1ncn2CCCNO",
    "TGI": "> 100 µM"
  },
  {
    "molecule": "COc1ccc2c(c1)CCC1C2CCC2(C)C(NC(=O)CCCCC3CCSS3)CCC12 (configuration not stated)",
    "TGI": "> 100 µM"
  },
  {
    "molecule": "O=c1[nH]c(NCCCCCO)nc2nc[nH]c12",
    "TGI": "> 100 µM"
  },
  {
    "molecule": "O=[N+]([O-])/C(=C/C=C/c1ccccc1)c1ccccc1",
    "TGI": "3.19 µM"
  },
  {
    "molecule": "Cc1cc(C)n(C(=CC(=O)C(Cl)Cl)n2nc(C)cc2C)n1",
    "TGI": "27.6 µM"
  },
  {
    "molecule": "CSC1=C(C)C(/C=N/Nc2ccc([N+](=O)[O-])cc2)=C(C)N(c2ccccc2)S1(=O)=O",
    "TGI": "> 100 µM"
  },
  {
    "molecule": "CC(=O)Nc1ccc2c(c1)[nH]c(=O)c1cc(Cl)ccc12",
    "TGI": "> 100 µM"
  }
]

// fetch TGI given entry CCCCCCCCCCCCCCCC[N+](C)(C)CCl
27.9 µM

Return TGI (reported value) for this molecule: CC(=O)OCCc1cc2ccccc2oc1=O
> 100 µM

Report measured TGI; entry is Cc1cc(N(CCC#N)CCC#N)ccc1/C=C1N=C(/C=C\c2ccccc2)N(c2ccc(C(=O)O)cc2)C\1=O
> 100 µM

Give the value of TGI reported for the following: Cc1cc(Br)c(O)c(-c2cscn2)c1
25.4 µM

* * *

tested on: K-562 leukemia; test: NCI tumour cell line growth inhibition, 48 h
Below, each of the molecules is paired with its reported TGI value.

[
  {
    "molecule": "Cc1ccccc1NC(=O)C(=O)CC(=O)c1sc(-n2nc(-c3ccccc3)cc2-c2ccccc2)nc1C",
    "measuredValue": "> 100 µM"
  },
  {
    "molecule": "CN(C)c1ccc(/C=C2\\N=C(c3ccccc3)N(c3nc4ccc(Sc5ccccc5)cc4[nH]3)C2=O)cc1",
    "measuredValue": "96.6 µM"
  },
  {
    "molecule": "C=C(/C=C/C=C(\\CO)CCC=C(C)C)[C@H]1CCC2([C@H](CCCO)/C(=C(/C)C=O)CC[C@]2(C)O)[C@H]1O (stereo not given in full)",
    "measuredValue": "> 100 µM"
  },
  {
    "molecule": "CC1(O)CC23CC(O)C4(O)C(CC(O)C4(C)C)C(C)(O)C2CCC1C3O (stereo not given)",
    "measuredValue": "> 100 µM"
  }
]

Fill in reported TGI for this entry: CCCC/C=C1/CCC(CN(C)C)C1=O (stereo not given)
3.79 µM

Annotate the molecule COC1=C(OC)C(=O)C(Cc2c(-c3ccccc3)nc3sc(Cl)cn23)=C(C)C1=O with its measured TGI.
52.4 µM

For CCn1c(-c2cc3ccccc3cc2OC(C)=O)n[nH]c1=S , write its TGI.
33.1 µM

Given c1ccc2c(c1)n1nnnc1c1nnnn21 , respond with its TGI.
> 100 µM

Write down TGI measured for item CN(C)CCCNC(=O)N/N=C/c1ccccn1
> 10 µM

Identify measured TGI corresponding to c1ccc2c(c1)ccc1cc3cc(NCCCCNc4ccc5nc6c(ccc7ccccc76)cc5c4)ccc3nc12
3.55 µM

* * *

The following molecules are listed with their measured TGI values.
system: SNB-19 CNS; experiment: NCI tumour cell line growth inhibition, 48 h

[
  {
    "molecule": "O=c1[nH]c(NCCCCCO)nc2nc[nH]c12",
    "observable": "TGI",
    "measuredValue": "> 100 µM"
  },
  {
    "molecule": "O=C(NCCNC1=CC(=O)c2nc3ccccc3c3ccnc1c23)c1cnccn1",
    "observable": "TGI",
    "measuredValue": "> 100 µM"
  },
  {
    "molecule": "Nc1nc2c([nH]1)c1[nH]c3ccccc3c1c1[nH]c3ccccc3c21",
    "observable": "TGI",
    "measuredValue": "25.5 µM"
  },
  {
    "molecule": "COc1ccc2c3c(c4cc(OC)c(OC)cc4c2c1)CN1CCC[C@H]1[C@@H]3O",
    "observable": "TGI",
    "measuredValue": "2.13 µM"
  }
]

Print SNB-19 CNS TGI for O=C1Cc2c([nH]c3ccccc23)-c2cc(Br)ccc2N1 .
> 100 µM

Look up and report TGI, with SNB-19 CNS as system, for Fc1nc(Sc2ncnc3nc[nH]c23)nc(-c2c3ccccc3c3sc4ccccc4n23)n1
> 100 µM

Report TGI under test system SNB-19 CNS for CC1CC[C@@]2(OC1)OC1C[C@H]3[C@@H]4CC=C5C[C@@H](OC6OC(CO)C(OC7OC(CO)C(O)C(O)C7O)C(O)C6OC6OC(C)C(O)C(O)C6O)CC[C@]5(C)[C@H]4CC[C@]3(C)C1[C@@H]2C (some centres undefined) .
3.92 µM

Give SNB-19 CNS TGI for the following molecule: Nc1ncnc2c1ncn2CCCNO
> 100 µM

State recorded TGI with SNB-19 CNS, entry Clc1ccc(C2=CC(c3ccccc3)N3C(=N[C@H]4CCCC[C@@H]43)N2)cc1 (some centres undefined) , no comment.
17.6 µM

* * *

test system: NCI-H226 lung; test: NCI tumour cell line growth inhibition, 48 h; in the data active = GI50 below about 0.43 µM; inactive = the rest
Answer with one of the outcomes given here: 1.0 (active), 0.0 (inactive)

The examples below pair each entry with its known result.
[
  {
    "compound": "CN(Cc1cnc2nc(N)nc(N)c2n1)c1c(Cl)cc(C(=O)NC(CCC(=O)O)C(=O)O)cc1Br (stereo unspecified)",
    "class": 1.0
  },
  {
    "compound": "Cn1cc(C2=C(c3cccc([N+](=O)[O-])c3)C(=O)NC2=O)c2ccccc21",
    "class": 0.0
  },
  {
    "compound": "O=C(Nc1ccc(-n2cc(-c3ccncc3)c(-c3ccc(Cl)c(O)c3)n2)cc1)c1ccc(Cl)c(Cl)c1",
    "class": 0.0
  }
]

Which outcome was assigned to O=C(/C=C/c1ccccn1)c1ccccc1 in this test?
0.0

Dear all, I need the recorded test outcome for COc1cc(C(=O)/C=C/c2c(C)n([O-])c3ccc(Cl)cc3[n+]2=O)cc(OC)c1OC , thank you.
0.0

// param item: COc1ccc(C2=NOC3=c4ccccc4=CSC3=C2c2ccccc2)cc1 ; yields the recorded call
0.0

* * *

system: SNB-75 CNS; test: NCI tumour cell line growth inhibition, 48 h
GI50 reference

Please review the entries below; each comes with its answer.
[
  {
    "compound": "C#CCN(CCCOc1ccc(Cl)cc1Cl)CCCSC(=O)CCCCCN1/C(=C\\C=C2/CCCC(/C=C/C3=[N+](CCCCCC(=O)[O-])c4ccccc4C3(C)C)=C2Cl)C(C)(C)c2ccccc21",
    "GI50": "1.3 µM"
  },
  {
    "compound": "CN1CCC(C(=O)Nc2n[nH]c3nnc(-c4ccccc4)cc23)CC1",
    "GI50": "> 5.22 µM"
  },
  {
    "compound": "O=C([CH-]C(=O)c1ccccc1)c1ccccc1.[CH2-]C.[CH2-]C.[Tl+3]",
    "GI50": "25.2 µM"
  },
  {
    "compound": "CCCCCCC1CCCCN1C(c1ccccc1)C(O)c1ccccc1 (configuration not stated)",
    "GI50": "11.4 µM"
  },
  {
    "compound": "COc1ccc([C@H]2c3[nH]c4ccccc4c3C[C@H]3C(=O)N(CCCCCCC(=O)NO)CC(=O)N23)cc1",
    "GI50": "1.12 µM"
  },
  {
    "compound": "COc1ccc2c(c1)CCC1C2CCC2(C)C(NC(=O)CCCCC3CCSS3)CCC12 (configuration not stated)",
    "GI50": "18.2 µM"
  },
  {
    "compound": "COc1cc(-c2ccc[nH]2)[nH]c1/C=C1\\N=C(C)C(C(=O)NC(C)C)=C1C",
    "GI50": "4.94 µM"
  },
  {
    "compound": "COc1ccc2cc1Oc1ccc(cc1)CC1c3c(cc(OC)c4c3Oc3cc5c(cc3O4)CCNC5C2)CCN1C (configuration not stated)",
    "GI50": "1.68 µM"
  }
]

Turning now to a further record.
Look up GI50 of COc1ccc(-c2nn(-c3cccc(Cl)c3)cc2-c2c(C#N)c(=O)n3[nH]c(-c4ccc(C)o4)nc3c2C#N)cc1 and report it.
1.56 µM
